// reported melting point for each item listed

Look over these answered cases.
Cl.O=C(NC1=Nc2ccc(Cl)cc2C2=NCCN12)c1cccs1 [Example 2-356] = 276 °C
CC(=O)Nc1ccc(/C(O)=C/C2=Nc3c(CN4CCOCC4)cccc3C3=NCCN23)cn1 [Example 1-208] = 253 °C (dec.)

Report melting point, nothing else, for this compound: Cl.O/C(=C\C1=Nc2ccccc2C2=NCCN12)c1cccs1 [Example 1-147]
> 300 °C

###

// reported melting point for each item listed

Look over these answered cases.
O=C(NC1=Nc2ccccc2C2=NCCN12)c1ccccn1 = 204 to 205 °C
Cc1nc2ccccn2c1C(=O)NC1=Nc2ccccc2C2=NCCN12.Cl = 328 °C (dec.)
COc1cc2c(cc1OC)C1=NCCN1C(/C=C(\O)c1cccs1)=N2 = 250 °C
Cl.O/C(=C\C1=Nc2ccccc2C2=NCCN12)c1csc2ccccc12 = > 300 °C
COc1cc2c(cc1OC)C1=NCCN1C(NC(=O)c1cncc(O)c1)=N2.Cl = 260 °C (dec.)

Report melting point, nothing else, for this compound: O=C(NC1=Nc2cc(OCCn3cccc3)ccc2C2=NCCN12)c1cccnc1
209 °C

Report melting point, nothing else, for this compound: Cl.O/C(=C\C1=Nc2ncccc2C2=NCCN12)c1ccc2[nH]cnc2c1
247 °C (dec.)

Report melting point, nothing else, for this compound: O=C(NC1=Nc2cc(OCCOCCO)ccc2C2=NCCN12)c1cccnc1
181 °C

Report melting point, nothing else, for this compound: Cl.O=C(NC1=Nc2cc(C(F)(F)F)ccc2C2=NCCN12)c1cncc(O)c1
237 °C (dec.)

Report melting point, nothing else, for this compound: Cc1ncccc1C(=O)NC1=Nc2ccccc2C2=NCCN12.Cl
277 °C (dec.)

Report melting point, nothing else, for this compound: CCCNc1ccc(/C(O)=C/C2=Nc3ccccc3C3=NCCN23)cn1
197 °C

Report melting point, nothing else, for this compound: O=C(NC1=Nc2ccccc2C2=NCCN12)c1ccc([N+](=O)[O-])cc1
279 to 281 °C
